Would you kindly list IC50 for each of these compounds?
tgt: human recombinant MAGL (Homo sapiens (Human), UniProt Q99685)
Sequence (Q99685 whole entry): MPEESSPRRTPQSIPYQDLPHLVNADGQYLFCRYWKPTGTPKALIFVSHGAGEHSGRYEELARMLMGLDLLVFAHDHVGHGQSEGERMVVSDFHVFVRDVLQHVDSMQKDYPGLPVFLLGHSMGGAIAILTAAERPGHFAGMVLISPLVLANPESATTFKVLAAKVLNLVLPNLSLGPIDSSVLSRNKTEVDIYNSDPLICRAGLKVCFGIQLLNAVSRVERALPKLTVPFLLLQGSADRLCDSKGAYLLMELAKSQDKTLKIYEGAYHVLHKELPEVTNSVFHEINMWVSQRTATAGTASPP
protocol-description: In vitro inhibition of MAGL activity (inhibitor screening kit, 4-nitrophenylacetate)
condition-description: human recombinant MAGL

                                   compound                                       tgt  result_value
0  CCCCCCCNC(=O)Oc1cccc(-c2cncc(C=O)c2)c1 [Example 15]  human recombinant MAGL (Homo sapiens (Human), UniProt Q99685)   10 to 50 µM
1  Cc1cc(OC(=O)NC2CCC(C)CC2)cc(-c2cncc(-c3ncco3)c2)c1 (stereo not shown) [Example 102]  human recombinant MAGL (Homo sapiens (Human), UniProt Q99685)       > 10 µM
2  O=C(NC1CCCC1)Oc1cccc(-c2cncc(-c3nnco3)n2)c1 [Example 266]  human recombinant MAGL (Homo sapiens (Human), UniProt Q99685)    1 to 10 µM
3  O=C(Oc1cccc(-c2cncc(-c3nnco3)c2)c1)N1CC2CC2C1 (stereo not shown) [Example 148]  human recombinant MAGL (Homo sapiens (Human), UniProt Q99685)       > 10 µM
4  O=C(NC1CCCCCC1)Oc1cc(O)cc(-c2cncc(-c3nnco3)c2)c1 [Example 165]  human recombinant MAGL (Homo sapiens (Human), UniProt Q99685)       > 10 µM
5  O=C(Oc1cccc(-c2cncc(-c3nnco3)c2)c1)N1CCCCC1 [Example 141]  human recombinant MAGL (Homo sapiens (Human), UniProt Q99685)       > 10 µM

// moving on: another record for IC50
Ask | API: value(readout=IC50, system=human recombinant MAGL (Homo sapiens (Human), UniProt Q99685)) for record CCCCCCCCNC(=O)Oc1ccc(OC)c(-c2cncc(-c3ncco3)c2)c1 [Example 78]
Reply | 1 to 10 µM

The reported measurements were obtained from patent US20250129027A1.
